Values were extracted from patent US8940770B2.

Tested on: A549 transfected with human cytochrome P450 reducease (CYPOR)
Assay: cells
Format: cell-based
Tick 1.0 if HCR O2/N2 (CYPOR) is 50 or greater. Tick 0.0 if HCR O2/N2 (CYPOR) is less than 50.

# MOLECULE, TARGET OR TEST SYSTEM, DISCRETE LABEL
rows = [
    ("NC(=O)c1cnc(N2CC2)c([N+](=O)[O-])c1 [Compound III]", "A549 transfected with human cytochrome P450 reducease (CYPOR)", 1.0),
    ("NC(=O)c1ccc([N+](=O)[O-])c(N2CC2)n1 [Compound V]", "A549 transfected with human cytochrome P450 reducease (CYPOR)", 0.0),
    ("NC(=O)c1cc(N2CC2)ncc1[N+](=O)[O-] [Compound VI]", "A549 transfected with human cytochrome P450 reducease (CYPOR)", 1.0),
    ("NC(=O)c1cc([N+](=O)[O-])cnc1N1CC1 [Compound IV]", "A549 transfected with human cytochrome P450 reducease (CYPOR)", 0.0),
    ("NC(=O)c1ccnc(N2CC2)c1[N+](=O)[O-] [Compound II]", "A549 transfected with human cytochrome P450 reducease (CYPOR)", 1.0),
]
